meta.source: PubChem BioAssay

- test protocol: modulators of S6 phosphorylation in cells, primary screen, cell-based, A549, cytoblot, luminescence, serum-stimulated (AID 1158);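 also: serum-stimulated A549 lung adenocarcinoma cells; signal is phosphorylated S6 detected by cytoblot immunostaining with HRP secondary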
- conditions: A549 phospho-S6 cytoblot, 5 h, higher = more signal
metric: z-score

Quick one: z-score for CC(CCN1CCc2nc(-c3ccccc3)c(-c3ccccc3)cc2C1)=NO[C@H](C)c1cn([C@H](CO)Cc2ccccc2)nn1 ? -0.746

Quick one: z-score for CC(=O)OC[C@H]1O[C@@H](ON=C(C)CCN2CCCCc3nc(C)c(C)cc32)[C@H](OC(C)=O)[C@@H](OC(C)=O)[C@@H]1OC(C)=O ? 0.314

Quick one: z-score for CC(=O)OC[C@H]1O[C@H](CC=NOC[C@@H](O)[C@H]2O[C@@H]3OC(C)(C)O[C@@H]3[C@H]2O)C=C[C@@H]1OC(C)=O ? -0.549

Quick one: z-score for COc1ccc2c(c1)O[C@@H](c1cccc(C(F)(F)F)c1)[C@H](O)C2=O ? 1.15

====

- assay target: Left-right determination factor 2 (Homo sapiens) (UniProt O00292)
- Sequence (O00292 whole entry, looked up): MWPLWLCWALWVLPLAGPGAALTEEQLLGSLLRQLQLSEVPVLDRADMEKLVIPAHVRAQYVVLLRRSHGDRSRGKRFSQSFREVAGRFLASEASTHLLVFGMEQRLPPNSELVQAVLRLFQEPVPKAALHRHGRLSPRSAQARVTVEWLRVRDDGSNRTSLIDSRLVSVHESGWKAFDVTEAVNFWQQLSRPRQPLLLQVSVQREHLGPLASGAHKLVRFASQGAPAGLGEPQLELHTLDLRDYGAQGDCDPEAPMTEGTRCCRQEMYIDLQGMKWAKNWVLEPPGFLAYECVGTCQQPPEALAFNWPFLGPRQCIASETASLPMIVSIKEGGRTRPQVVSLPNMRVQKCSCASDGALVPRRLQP
- test protocol: LEFTY2 binders on small-molecule microarrays, primary screen, biochemical, small-molecule microarray, 635 nm fluorescence scan (AID 1110)
- conditions: LEFTY2 binding, higher = more signal
Where composite z-score equals or exceeds 0.5, the correct label is true (1); where it does not, the label is false (0).

Hi team, for O=C1C=C[C@@H](O)[C@@H]2[C@@H]3C(=O)N(Cc4ccccc4)C(=O)[C@@H]3CC[C@@H]12 , is the recorded composite z-score at or above 0.5? true (1)

Hi team, for O=C1C[C@@H](O)[C@@H](O)[C@@H]2[C@@H]3C(=O)N(Cc4ccccc4)C(=O)[C@@H]3CC[C@H]12 , is the recorded composite z-score at or above 0.5? true (1)

Hi team, for CC(=O)OC[C@H]1O[C@H](CC=NOC[C@@H](O)COCc2ccco2)C=C[C@@H]1OC(C)=O , is the recorded composite z-score at or above 0.5? true (1)

Hi team, for CCOC(=O)[C@H](Cc1ccccc1)NC(=O)CCC1CC(OC(=O)NCc2ccc3c(c2)OCO3)CC2(CCCC(COC(=O)NCCOc3ccccc3)O2)O1 (stereo not given in full) , is the recorded composite z-score at or above 0.5? true (1)

Hi team, for COC(=O)[C@H](C)NC(=O)CCC1CC(OC(=O)NCCc2ccc(F)cc2)CC2(CCCC(COC(=O)NCCc3ccccc3OC)O2)O1 (stereo not given in full) , is the recorded composite z-score at or above 0.5? true (1)

Hi team, for COC(=O)[C@H](Cc1ccccc1)NC(=O)[C@@H](C)CO , is the recorded composite z-score at or above 0.5? true (1)

Hi team, for CC(C)=CCCC(C)=CCON=C1C[C@@H](O)[C@@H](O)[C@@H]2[C@@H]3C(=O)N(Cc4ccc5c(c4)OCO5)C(=O)[C@@H]3CC[C@H]12 , is the recorded composite z-score at or above 0.5? true (1)

Hi team, for O=C1C2=CC[C@H]3C(=O)N(Cc4ccccc4)C(=O)[C@H]3[C@H]2[C@H](O)[C@@H]2O[C@H]12 , is the recorded composite z-score at or above 0.5? false (0)

Hi team, for CC(C)[C@H](NC(=O)OC(C)(C)C)[C@@H](O)CC(=O)C(C)(C)C , is the recorded composite z-score at or above 0.5? false (0)

Hi team, for CC(CCN1CCCc2nc(C)c(C)cc21)=NOC[C@@H](C)[C@H](OCc1ccccc1)C(C)C , is the recorded composite z-score at or above 0.5? false (0)

Hi team, for COc1ccc(O[C@H]2C=C[C@@H](c3ccccc3)O[C@@H]2COC(=O)CCC(C)=NOC[C@@H](O)COCc2ccco2)cc1 , is the recorded composite z-score at or above 0.5? false (0)

Hi team, for OC[C@H]1O[C@H](C#Cc2ccccc2)C=C[C@@H]1O , is the recorded composite z-score at or above 0.5? false (0)

Hi team, for CC(C)CON=C1C[C@@H](O)[C@@H](O)[C@@H]2[C@@H]3C(=O)N(C(C)(C)C)C(=O)[C@@H]3CC[C@@H]12 , is the recorded composite z-score at or above 0.5? true (1)

Hi team, for COC(OC)[C@@H](C)[C@H](OC)[C@@H](C)[C@H](OC)c1ccccc1 , is the recorded composite z-score at or above 0.5? false (0)

Hi team, for COC(=O)[C@H](C)NC(=O)CCC1CC(OC(=O)NCc2cccc3ccccc23)CC2(CCCC(COC(=O)NCc3cccc(C(F)(F)F)c3)O2)O1 (stereo not given in full) , is the recorded composite z-score at or above 0.5? true (1)

Hi team, for CC(C)=CCCC(C)=CCON=C1C[C@@H](O)[C@@H](O)[C@@H]2[C@@H]3C(=O)N(C4CCCCC4)C(=O)[C@@H]3CC[C@H]12 , is the recorded composite z-score at or above 0.5? true (1)

Hi team, for CO[C@@H]1C=CCC(=O)N[C@@H](C)C(=O)OC[C@@H](NS(=O)(=O)c2ccc(C)cc2)[C@H](C)C=CCC(=O)OC[C@H]1C , is the recorded composite z-score at or above 0.5? true (1)

Hi team, for CCO[C@H](c1cc(OC)cc([N+](=O)[O-])c1OC)[C@H](C)[C@@H](OC)[C@H](C)C=CCC(=O)OC , is the recorded composite z-score at or above 0.5? false (0)

Hi team, for CO[C@H]1COC(=O)[C@H](C)COC(=O)[C@H](C)NC(=O)CC=C[C@H]1C , is the recorded composite z-score at or above 0.5? true (1)

Hi team, for COc1ccc(COC(=O)NN=C2C[C@@H](O)[C@@H](O)[C@@H]3[C@@H]4C(=O)N(C[C@@H]5CCCO5)C(=O)[C@@H]4CC[C@H]23)cc1 , is the recorded composite z-score at or above 0.5? false (0)

Hi team, for O=C1C=C[C@@H](O)[C@@H]2[C@@H]3C(=O)N(c4cccc(Oc5ccccc5)c4)C(=O)[C@@H]3CC[C@@H]12 , is the recorded composite z-score at or above 0.5? true (1)

Hi team, for O=C1[C@H]2CCn3c(=O)n(Cc4cc5c(cc4Cl)OCO5)c(=O)n3[C@H]2[C@H](O)[C@@H]2O[C@H]12 , is the recorded composite z-score at or above 0.5? false (0)

Hi team, for CC(=O)OC[C@H]1O[C@H](CC=NO[C@@H](C)c2cn([C@H](CO)Cc3ccccc3)nn2)C=C[C@@H]1OC(C)=O , is the recorded composite z-score at or above 0.5? true (1)

Hi team, for O=C1[C@H]2[C@H]3[C@H](O)[C@H](O)CC(=NOCc4ccccc4)[C@@H]3CC[C@H]2C(=O)N1c1cccc(Oc2ccccc2)c1 , is the recorded composite z-score at or above 0.5? false (0)

Hi team, for COc1ccc(COC(=O)NN=C2C[C@@H](O)[C@@H](O)[C@@H]3[C@@H]4C(=O)N(C[C@@H]5CCCO5)C(=O)[C@@H]4CC[C@@H]23)cc1 , is the recorded composite z-score at or above 0.5? false (0)

Hi team, for CCOC(=O)CCN1C(=O)[C@H]2[C@H]3[C@H](O)[C@H](O)CC(=NOCC(C)C)[C@@H]3CC[C@H]2C1=O , is the recorded composite z-score at or above 0.5? true (1)

Hi team, for CC(=O)OC[C@H]1O[C@@H](ON=C(C)C)[C@H](OC(C)=O)[C@@H](OC(C)=O)[C@@H]1OC(C)=O , is the recorded composite z-score at or above 0.5? false (0)

Hi team, for COc1ccc(COC(=O)NN=C2C[C@@H](O)[C@@H](O)[C@@H]3[C@@H]4C(=O)N([C@@H](C)c5ccccc5)C(=O)[C@@H]4CC[C@@H]23)cc1 , is the recorded composite z-score at or above 0.5? true (1)

Hi team, for COC(=O)[C@H](C)NC(=O)CCC1CC(OC(=O)NCc2cccc3ccccc23)CC2(CCCC(COC(=O)NCCC(C)C)O2)O1 (stereo not given in full) , is the recorded composite z-score at or above 0.5? false (0)
